System: human colon cancer cell line HCT-116
test_name: In vitro activity test, Test Example 4, cancer cell
Assay type: cell-based
test_context: HCT-116 (Cancer cell), 48 hours, read-out: cell viability IC50
property_label: IC50 (nM)
Give just the number in nM; leave the unit off.

Prompt line: Request the reported IC50 associated with CCc1c2c(nc3ccc(O)cc13)-c1cc3c(c(=O)n1C2)COC(=O)[C@]3(O)CC
Response line: 40

Data provenance: patent US20240300979A1
